- PROCEDURE_SUMMARY: Maximum absorption wavelength of the dye in N-methylpyrrolidone (UV-2550 spectrophotometer)
- Type: physicochemical
- TEST_PARAMETERS: in N-methylpyrrolidone solvent
// values below are reported λmax
QUANTITY_MEASURED: λmax (nm)

                                   compound  units_text  readout_number
0  CCCCCCOc1ccc(N=Nc2ccc(C=Cc3cc(OCCOCCOCCOC)c(C=Cc4ccc(N=Nc5ccc(OCCCCCC)cc5)cc4)cc3OC)cc2)cc1 [A-3]          nm           463.3
1  CCCCCCCCCCCCCCCCCCOc1cc(C=Cc2ccc(N=Nc3ccc(OCCCCCC)cc3)cc2)c(OC)cc1C=Cc1ccc(N=Nc2ccc(OCCCCCC)cc2)cc1 [A-9]          nm           460.0
2  CCCCCCOc1ccc(N=Nc2ccc(C=Cc3cc(OCCOCCOCCO)c(C=Cc4ccc(N=Nc5ccc(OCCCCCC)cc5)cc4)cc3OC)cc2)cc1 [A-4]          nm           463.8
3  CCCCCCOc1ccc(N=Nc2ccc(C=Cc3cc(OCCOCCOCCOC)c(C=Cc4ccc(N=Nc5ccc(OCCCCCC)cc5)cc4)cc3OCCOCCOCCOC)cc2)cc1 [A-10]          nm           457.5
4  CCCCCCOc1ccc(N=Nc2ccc(C=Cc3cc(OC)c(C=Cc4ccc(N=Nc5ccc(OCCCCCC)cc5)cc4)cc3OC)cc2)cc1 [A-34]          nm           463.4
